Data origin: patent US20030186281A1

# Tested on: tet operator sequence
# assay: β-galactosidase activity of a tetracycline-regulated promoter in transformed E. coli with revTetR, in the presence and absence of anhydrotetracycline (atc)
# Type: cell-based, Escherichia coli
# runParameters: RevTetR isolate cultured in the presence of anhydrotetracycline (ATC)
parameterMeasured: β-Galactosidase Activity, Cultured With ATC
# respond with the number and nothing more

Using the record for TetRrev6-35: revTetR(BD) D95Y V99E (protein, Modified tetracycline repressor, revTetR(BD) D95Y V99E) MSRLDKSKVINSALELLNEVGIEGLTTRKLAQKLGVEQPTLYWHVKNKRALLDALAVEILARHHDYSLPAAGESWQSFLRNNAMSFRRALLRYRYGAKEHLGTRPDEKQYDTVETQLRFMTENGFSLRDGLYAISAVSHFTLGAVLEQQEHTAALTDRPAAPDENLPPLLREALQIMDSDDGEQAFLHGLESLIRGFEVQLTALLQIV , report its β-Galactosidase Activity, Cultured With ATC.
7.0255
